- ASSAY INFO: Pharmacokinetics in fasted male Sprague Dawley rats, single dose
- Assay type: in vivo
- MEASUREMENT SETUP: rat, po, analyte EZE in plasma, single dose 100 mg/kg crystalline EZE or equivalent amount of amorphous EZE
TEST READOUT: Tmax (h)
Answers are plain numbers, in h.

Data request: Fill blank: measured Tmax of the compound `O=C1[C@H](CC[C@H](O)c2ccc(F)cc2)[C@@H](c2ccc(O)cc2)N1c1ccc(F)cc1` is ____.
Data returned: 8

* * *

- ASSAY INFO: Pharmacokinetics in fasted male Sprague Dawley rats, single dose
- Assay type: in vivo
- MEASUREMENT SETUP: rat, po, analyte EZE in plasma, single dose 100 mg/kg crystalline EZE or equivalent amount of amorphous EZE
TEST READOUT: Cmax (ng/mL)
Answers are plain numbers, in ng/mL.

Data request: Fill blank: measured Cmax of the compound `O=C1[C@H](CC[C@H](O)c2ccc(F)cc2)[C@@H](c2ccc(O)cc2)N1c1ccc(F)cc1` is ____.
Data returned: 5.1

FYI, the data here is from patent US20080085315A1.
